test system: P. falciparum 3D7 growth, pLDH absorbance; assay: blood-stage malaria parasite growth potency – strain 3D7, dose response (AID 2305)
READOUT TYPE: pIC50
Interpret pIC50 as the negative base-10 log of the concentration measured in mol/L.

Completed entries (count: 3):
API: value(readout= pIC50, system= P. falciparum 3D7 growth, pLDH absorbance, query= CCCN(Cc1nnc(-c2ccco2)o1)C(=O)C1CCCN(C(=O)c2ccc(Cl)cc2)C1 (centres undefined) )
6.28

API: value(readout= pIC50, system= P. falciparum 3D7 growth, pLDH absorbance, query= CN(C)CC(=O)Nc1ccc(Nc2nccc(NCC(O)c3ccccc3)n2)cc1 (centres undefined) )
6.01

API: value(readout= pIC50, system= P. falciparum 3D7 growth, pLDH absorbance, query= NC(N)=NN=Cc1ccc2ccc3ccccc3c2c1 )
6.42

Next up:
API: value(readout= pIC50, system= P. falciparum 3D7 growth, pLDH absorbance, query= Clc1cc2c(Nc3ccc(Oc4ccccc4)cc3)ccnc2cc1-c1ccc(CNCCN2CCOCC2)o1 )
6.15

---

Each item that follows carries a reported pIC50.
system: P. falciparum 3D7 growth, pLDH absorbance; experiment: blood-stage malaria parasite growth potency – strain 3D7, dose response (AID 2305)
Interpret pIC50 as the negative base-10 log of the concentration measured in mol/L.

Give the measured pIC50 of CC[C@H]1CN2CC[C@H]1C[C@H]2[C@H](O)c1cc(-c2ccc3ccccc3c2)nc2ccc(OC)cc12 .
7.00

Give the measured pIC50 of CCCCNC(=O)[C@H](CC1CCCCC1)NC(=O)c1ccc(O)c(-c2ccc(Cl)c(Cl)c2)c1 .
6.80

Give the measured pIC50 of CS(=O)(=O)n1c(CN2CCN(c3ncc(C(F)(F)F)cc3Cl)CC2)nc2ccccc21 .
5.97

Give the measured pIC50 of COc1cc(NC(=O)/C=C/c2ccccc2OC(F)(F)F)cc(OCCN2CCCCC2)c1 .
6.72

Give the measured pIC50 of CC(C)(C)OC(=O)c1c(NC(=O)/C=C/c2ccc(O)c(O)c2)sc2c1CCCC2 .
6.09

---

test system: P. falciparum 3D7 growth, pLDH absorbance; assay: blood-stage malaria parasite growth potency – strain 3D7, dose response (AID 2305)
READOUT TYPE: IC50 (nM)
Field: numeric (nM). Do not append units.

Give the measured IC50 of Cc1cccc(Cl)c1Nc1nnc(-c2cccc(C(=O)NC[C@@H]3CC[C@H]4C[C@@H]3C4(C)C)c2)o1 .
270

Give the measured IC50 of O=C(/C=C/c1ccc(Cl)c(Cl)c1)NCCCCCN1CCC(NC(=O)Nc2ccc(Cl)cc2Cl)CC1 .
640

Give the measured IC50 of COc1ccccc1CCNc1nc(C)cc(N[C@@H](CC(C)C)C(=O)Nc2ccccc2)n1 .
1280

Give the measured IC50 of CCCCCc1cc(OC(C)=O)c2c(c1)OC(C)(C)C=C2C1=CCN(Cc2ccccc2)CC1 .
930

Give the measured IC50 of COc1ccccc1C(=O)C1CCCN(C(=O)c2ccccc2C(F)(F)F)C1 (stereo not drawn) .
600

Further cases:
Give the measured IC50 of CC(c1cccc(S(=O)(=O)NCc2cccc(C(F)(F)F)c2)c1)N1CCC(N2CCCCC2)CC1 (stereo not drawn) .
690

Give the measured IC50 of N#Cc1ccc2c(c1)CN(CCC1CCC(NC(=O)c3cc4cc(OC(F)(F)F)ccc4[nH]3)CC1)CC2 (stereo not drawn) .
780

---

test system: P. falciparum 3D7 growth, pLDH absorbance; experiment: blood-stage malaria parasite growth potency – strain 3D7, dose response (AID 2305)
Each item that follows carries a reported pIC50.
Interpret pIC50 as the negative base-10 log of the concentration measured in mol/L.

Completed entries (count: 5):
Give the measured pIC50 of O=C(Nc1ccc(F)c(F)c1)c1ccc(CN2CCCN(Cc3cccc(F)c3)CC2)cc1 .
5.95

Give the measured pIC50 of CCOC(=O)c1cccc(N/C(N)=N/c2nc(C)cc(NCCc3ccccc3)n2)c1 .
6.17

Give the measured pIC50 of NC1=NC2(CCCCC2)N(OCCCCCCN2C(=O)c3ccccc3C2=O)C(N)=N1 .
6.06

Give the measured pIC50 of FC(F)(F)c1ccc(-c2ccc(CNC3CCN(CCN4CCOCC4)CC3)cc2)cc1 .
6.12

Give the measured pIC50 of N#Cc1ccc2c(c1)CCN(CCC1CCC(NC(=O)/C=C/c3cc(Br)cs3)CC1)CC2 (stereo unspecified) .
6.00

Further cases:
Give the measured pIC50 of CC1CN(Cc2cccc(C#N)c2)CCN1c1ccc(NC(=O)c2cccs2)cc1 (stereo unspecified) .
6.17

Give the measured pIC50 of COc1cc2c(cc1C(F)(F)F)N(C(=O)Nc1cc(F)cc(-c3cccnn3)c1)CC2 .
6.57

Give the measured pIC50 of CC(CN1CCN(C)CC1)C(=O)Nc1ccc(-c2cccc(-c3nc4ccc(F)cc4[nH]3)c2)cc1 (stereo unspecified) .
6.28

Give the measured pIC50 of COc1cc(CCNc2nc(NCc3cccc4ccccc34)nc(N3CCC(N)CC3)n2)ccc1O .
6.10

Give the measured pIC50 of Cc1ccc(CN2CCN(c3cc4c(cc3Cl)CCN4C(=O)Cc3ccc(Cl)c(NC(=O)Nc4cccc(C#N)c4)c3)CC2)cc1 .
5.95

Give the measured pIC50 of COc1ccc(CNC2CCN(C)CC2)cc1-c1ccc(S(=O)(=O)NCc2ccccc2)c(F)c1 .
6.10

---

test system: P. falciparum 3D7 growth, pLDH absorbance; assay: blood-stage malaria parasite growth potency – strain 3D7, dose response (AID 2305)
Each item that follows carries a reported IC50.
Field: numeric (nM). Do not append units.

Give the measured IC50 of Cc1ccc2[nH]c(-c3ccc(C(=O)NCc4ccc(Cl)c(Cl)c4)cc3)nc2c1C .
790

Give the measured IC50 of CCN1CCc2c1cc(C(=O)N[C@@H](Cc1ccccc1)[C@H](O)CNC(C)(C)c1cccc(C(F)(F)F)c1)cc2N1CCCCS1(=O)=O .
110

Next up:
Give the measured IC50 of CC(=O)N(C)c1cccc(C(=O)Nc2cccc(-c3cccc(-c4nc5ccc(C(F)(F)F)cc5[nH]4)c3)c2)c1 .
240

---

Each item that follows carries a reported IC50.
tested on: P. falciparum 3D7 growth, pLDH absorbance; experiment: blood-stage malaria parasite growth potency – strain 3D7, dose response (AID 2305)
Field: numeric (nM). Do not append units.

Completed entries (count: 4):
API: value(readout= IC50, system= P. falciparum 3D7 growth, pLDH absorbance, query= O=C(C=Cc1ccc(Cl)c(Cl)c1)NCCCCCN1CCC(CCCNC(=O)/C=C/c2ccccc2)CC1 )
590

API: value(readout= IC50, system= P. falciparum 3D7 growth, pLDH absorbance, query= O=C(/C=C/c1ccc([N+](=O)[O-])cc1)N1CCC(NS(=O)(=O)c2ccc(Br)cc2)CC1 )
1050

API: value(readout= IC50, system= P. falciparum 3D7 growth, pLDH absorbance, query= Oc1ccc2nc(Nc3ccccc3)nc(NCCc3ccccc3)c2c1 )
150

API: value(readout= IC50, system= P. falciparum 3D7 growth, pLDH absorbance, query= CC1(C)N=C(N)N=C(N)N1c1cccc(I)c1 )
130

Further cases:
API: value(readout= IC50, system= P. falciparum 3D7 growth, pLDH absorbance, query= CC(C)(C)C(=O)Nc1ccc(N2CCN(C(c3ccccc3)c3ccccc3)CC2)c(Cl)c1 )
660

API: value(readout= IC50, system= P. falciparum 3D7 growth, pLDH absorbance, query= Cc1[nH]cnc1-c1cccc(NC(=O)c2cc3ccccc3s2)c1 )
210

---

tested on: P. falciparum 3D7 growth, pLDH absorbance; assay: blood-stage malaria parasite growth potency – strain 3D7, dose response (AID 2305)
READOUT TYPE: IC50 (nM)
Field: numeric (nM). Do not append units.

Give the measured IC50 of Cc1cc(C2CCN(CCCCNC(=O)c3ccc(NC(=O)c4ccc(Cl)cc4)cc3)CC2)c(C)cc1OC(C)C .
740

Give the measured IC50 of O=C1CC(C(=O)O)CC(=O)N1 .
760

Give the measured IC50 of CCOc1ccc(-c2nonc2NC(=O)c2cccc(Cl)c2)cc1OCC .
150

Give the measured IC50 of Cc1cc(N[C@@H](Cc2ccccc2)C(=O)NC2CCCC2)nc(NCC2CCCCC2)n1 .
1170

Give the measured IC50 of CCCNCc1ccc(-c2ccc(CN(CCOC)C(=O)COc3ccccc3Cl)cc2)nc1 .
910

Give the measured IC50 of CCOC(=O)C1=C(C)NC2=C(C(=O)C(C(=O)OC)C(C)C2)C1c1cc(Br)c(OCC)c(OC)c1 (stereo not drawn) .
700

Give the measured IC50 of COc1ccc(Cl)cc1NC(=O)Nc1ccc2c(c1)CCN(C1CCC1)CC2 .
810

Give the measured IC50 of CCCCCCN1CCC(NCc2cccc(-n3ccnc3)c2)CC1 .
250

Give the measured IC50 of CC(C)Nc1nc(NCCc2cnc[nH]2)nc(Nc2ccc(Oc3ccccc3)cc2)n1 .
890

Give the measured IC50 of CC(C)(C)c1ccc(CNC(=O)c2ccc(CNC3CCC(N)CC3)s2)cc1 (stereo not drawn) .
530

Give the measured IC50 of COc1ccccc1CN1CCC(NC(=O)c2ccc(-c3cccc(C(F)(F)F)c3)s2)CC1 .
1310

Give the measured IC50 of COc1cccc(C2CCN(CCN3CCC(NC(=O)c4ccc(-c5ccc(C#N)cc5)cc4)CC3)CC2)c1 .
700

Give the measured IC50 of NC1CCN(Cc2cccc(-c3cccc(-c4nc5ccccc5[nH]4)c3)c2)C1 (stereo not drawn) .
790

Give the measured IC50 of COc1ccc(Nc2nccc(NCCNC(=O)c3cc4ccccc4s3)n2)cc1 .
1020

Give the measured IC50 of CCc1ccc(NC(=O)c2ccc(CN3CCCN(Cc4cccc(Cl)c4)CC3)cc2)cc1 .
1110

Give the measured IC50 of Cc1nc(N)nc(N)c1-c1ccc(Br)c([N+](=O)[O-])c1 .
200

Give the measured IC50 of CCNc1cc(C(=O)N[C@@H](Cc2ccccc2)[C@H](O)CN[C@H](C)c2ccccc2)cc(N2CCCC2=O)c1 .
50

Give the measured IC50 of CCCN(c1ccc(C(F)(F)F)cc1[N+](=O)[O-])S(=O)(=O)C(c1ccccc1)c1ccc(C(F)(F)F)cc1[N+](=O)[O-] (stereo not drawn) .
1220

Give the measured IC50 of FC(F)(F)c1ccc2nc(-c3ccc(-c4ccc(CNCc5cnn(-c6ccccc6)n5)cc4)s3)[nH]c2c1 .
460

Give the measured IC50 of c1cc(CN2CCN(c3ccncc3)CC2)cc(-c2ccc(-c3nc4ccccc4[nH]3)cc2)c1 .
150

Give the measured IC50 of Cn1nc(-c2cccc(CNCc3ccccc3)c2)c2cnc(NC3CCCC3)nc21 .
1260

Give the measured IC50 of O=C(Nc1cccc(C(F)(F)F)c1)Nc1ccc(Cl)c(Cl)c1 .
740

Give the measured IC50 of CCn1c(Sc2ccc(C#N)c([N+](=O)[O-])c2)nnc1-c1ccc(OC)cc1 .
810

Give the measured IC50 of COc1cc(Cc2cnc(N)nc2N)ccc1OCc1cccc(Oc2ccccc2)c1 .
1330

Reference source for all entries: PubChem BioAssay AID2305
